Assay text: PK study in rabbits, ocular tissue concentrations (LC-MS/MS)
Format: in vivo, New Zealand White rabbits
Protocol conditions: male, New Zealand White, rabbit, cornea, topical; persisted up to 6 hours; 40 μL (50 mg/mL) GW559090A; read-out: Corneal tissue concentration
Observable: concentration at 6 h

• Cc1ccccc1OCC(=O)N[C@@H](CC(C)C)C(=O)N[C@@H](Cc1ccc(OC(=O)N2CCC(C(N)=O)CC2)cc1)C(=O)O = ~358 ng/mL

###

Assay text: Toxicokinetics in 13-week topical ocular dog study
Protocol conditions: female, beagle, in vivo, topical or ocular, 50 mg/mL/occasion, female dogs, 50 mg/mL, 12 daily doses, Week 4, read-out: AUC0-1
Observable: AUC(0-t) (ng·h/mL)

* Cc1ccccc1OCC(=O)N[C@@H](CC(C)C)C(=O)N[C@@H](Cc1ccc(OC(=O)N2CCC(C(N)=O)CC2)cc1)C(=O)O [GW559090] | 6.77
